These data points were gathered from patent US20260242395A1.

target: CDK9/CyclinT1 (Homo sapiens)
experiment: CDK9/CyclinT1 kinase inhibitory activity (Caliper mobility shift)
condition.info: enzyme 12.5 nM, ATP 10M, 28° C. 30 min; read-out: CDK9/Cyclin T1 IC50
measured.attribute: IC50

> print(dat)
                                   molecule                        target      test.value
1  Cc1c(C(C)(C)O)cnc2c(F)cc(-c3nc(N[C@@H]4CCOC[C@H]4O)ncc3Cl)cc12 [Example 7]  CDK9/CyclinT1 (Homo sapiens)  100 to 1000 nM
2  O[C@@H]1COCC[C@H]1Nc1ncc(F)c(-c2cc(F)c3ncc4c(c3c2)CNC2(CC2)C4)n1 [Example 56]  CDK9/CyclinT1 (Homo sapiens)    10 to 100 nM
3  CC(C)(O)c1cnc2c(F)cc(-c3nc(N[C@@H]4CCOC[C@H]4O)ncc3Cl)cc2c1 [Example 1]  CDK9/CyclinT1 (Homo sapiens)       ≥ 1000 nM
4  Cc1nc2c(F)cc(-c3nc(N[C@@H]4CCOC[C@H]4O)ncc3Cl)cc2cc1C1CCCN1 (single isomer, unassigned) [Example 57a]  CDK9/CyclinT1 (Homo sapiens)  100 to 1000 nM
5  CC(C)(O)c1cnc2c(F)cc(-c3nc(N[C@@H]4CCOC[C@H]4O)ncc3F)cc2c1Cl [Example 22]  CDK9/CyclinT1 (Homo sapiens)  100 to 1000 nM

Field IC50 (entry Cc1nc2c(F)cc(-c3nc(N[C@@H]4CCOC[C@H]4O)ncc3Cl)cc2c2c1CC(C)(C)NC2 [Example 98] ) reads 100 to 1000 nM

Field IC50 (entry O[C@@H]1COCC[C@H]1Nc1ncc(Cl)c(-c2cc(F)c3c(c2)N2CCNC[C@@H]2CO3)n1 [Example 19] ) reads 10 to 100 nM

Field IC50 (entry [2H]c1nc2c(F)cc(-c3nc(N[C@@H]4CCOC[C@H]4O)ncc3F)cc2c(C)c1C(C)(C)O [Example 94] ) reads 100 to 1000 nM

Field IC50 (entry Cc1nc2c(F)cc(-c3nc(N[C@@H]4CCOC[C@H]4O)ncc3F)cc2c2c1CC1(CC1)NC2 [Example 65] ) reads 100 to 1000 nM

* * *

target: CDK9/CyclinT1 (Homo sapiens, UniProt P50750)
Sequence (P50750 whole entry): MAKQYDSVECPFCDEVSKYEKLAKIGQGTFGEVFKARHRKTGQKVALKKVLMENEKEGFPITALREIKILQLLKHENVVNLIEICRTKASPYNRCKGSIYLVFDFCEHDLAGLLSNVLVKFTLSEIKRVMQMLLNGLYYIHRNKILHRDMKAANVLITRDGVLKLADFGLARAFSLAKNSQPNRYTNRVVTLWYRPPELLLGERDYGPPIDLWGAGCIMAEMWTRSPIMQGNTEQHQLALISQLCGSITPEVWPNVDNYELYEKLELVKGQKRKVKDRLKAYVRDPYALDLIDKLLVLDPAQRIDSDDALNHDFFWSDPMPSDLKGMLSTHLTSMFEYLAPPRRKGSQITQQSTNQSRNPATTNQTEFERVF
Sequence (O60563 whole entry partner): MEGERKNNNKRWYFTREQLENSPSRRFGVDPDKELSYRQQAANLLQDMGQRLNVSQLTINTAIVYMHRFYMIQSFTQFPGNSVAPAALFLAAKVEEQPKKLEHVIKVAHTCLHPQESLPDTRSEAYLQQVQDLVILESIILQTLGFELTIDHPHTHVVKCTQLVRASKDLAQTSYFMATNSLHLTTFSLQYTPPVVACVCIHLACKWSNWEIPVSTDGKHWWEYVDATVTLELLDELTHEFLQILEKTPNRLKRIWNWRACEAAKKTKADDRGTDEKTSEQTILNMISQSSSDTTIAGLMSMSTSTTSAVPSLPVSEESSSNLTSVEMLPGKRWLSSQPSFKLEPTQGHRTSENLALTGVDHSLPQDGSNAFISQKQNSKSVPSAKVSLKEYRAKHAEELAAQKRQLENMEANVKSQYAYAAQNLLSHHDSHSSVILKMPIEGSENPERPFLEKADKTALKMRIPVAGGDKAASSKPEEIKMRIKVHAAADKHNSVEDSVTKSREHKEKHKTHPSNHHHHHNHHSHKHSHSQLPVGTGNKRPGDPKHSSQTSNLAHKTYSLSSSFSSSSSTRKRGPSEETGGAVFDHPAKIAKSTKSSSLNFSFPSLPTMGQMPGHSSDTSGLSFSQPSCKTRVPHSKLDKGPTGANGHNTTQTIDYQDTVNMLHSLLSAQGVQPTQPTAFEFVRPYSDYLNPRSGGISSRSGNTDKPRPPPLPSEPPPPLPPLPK
experiment: CDK9/CyclinT1 kinase inhibitory activity (Caliper mobility shift)
condition.info: enzyme 12.5 nM, ATP 10M, 28° C. 30 min; read-out: CDK9/Cyclin T1 IC50
measured.attribute: IC50

A selection of reference data follows.
> print(dat)
                                   compound  measured.attribute      test.value
1  CNC(C)(C)c1cnc2c(F)cc(-c3nc(N[C@@H]4CCOC[C@H]4O)ncc3Cl)cc2c1                IC50  100 to 1000 nM
2  Cc1c(C(C)(C)O)cnc2c(C)cc(-c3nc(N[C@@H]4CCOC[C@H]4O)ncc3Cl)cc12                IC50       ≥ 1000 nM
3  CC1(C)Cc2cnc3c(F)cc(-c4nc(N[C@@H]5CCOC[C@H]5O)ncc4Cl)cc3c2CN1                IC50    10 to 100 nM

Now for the compound whose IC50 we want.
Field IC50 (entry Cc1nc2c(F)cc(-c3nc(N[C@@H]4CCOC[C@H]4O)ncc3F)cc2c(C)c1C(C)O (single isomer, unassigned) [Example 81b] ) reads 100 to 1000 nM
